Test: duplex melting temperature (HRM, EvaGreen); higher = more stable duplex
Settings: duplex concentration 5 µM; backbone: PS-PO (listed strand fully phosphorothioate, complement phosphodiester)
readout.type: duplex melting temperature (°C)

>>> val("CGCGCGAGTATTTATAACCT")
65.6
>>> val("TATTCTGCCAATGGAAC")
58.3
>>> val("CGTGCAGCACTACTTG")
62.3
>>> val("CCGCTCAGAGTAGAGA")
61.8
>>> val("AGGAGTGAATGAAATGG")
59.1
>>> val("ACTGTATCGCCCTA")
57.4

====

Experiment: duplex melting temperature (HRM, EvaGreen); higher = more stable duplex
Conditions: duplex concentration 2.5 µM; backbone: PS-PO (listed strand fully phosphorothioate, complement phosphodiester)
readout.type: duplex melting temperature (°C)

>>> val("GTGGTACAAATGCGACC")
61.2
>>> val("CTTTTGTGCGGGTAGC")
59.2
>>> val("GAGCAGAAGGGGTTGT")
60.9
>>> val("TGTCGCACCCTACTA")
59.1
>>> val("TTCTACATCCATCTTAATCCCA")
60.3

====

Test: duplex melting temperature (HRM, EvaGreen); higher = more stable duplex
Conditions: duplex concentration 5 µM; backbone: PS-PS (both strands fully phosphorothioate)
Overview of recorded duplex melting temperature for various sequences
readout.type: duplex melting temperature

>>> val("AGAGCGCCCTGCTGCC")
"66.2 °C"
>>> val("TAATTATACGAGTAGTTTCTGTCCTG")
"57.3 °C"
>>> val("GAGCAGAAGGGGTTGT")
"56 °C"
>>> val("CTCGGAGGCCCCATTTA")
"61.5 °C"

====

Assay: duplex melting temperature (HRM, EvaGreen); higher = more stable duplex
Conditions: duplex concentration 20 µM; backbone: PS-PO (listed strand fully phosphorothioate, complement phosphodiester)
// False strictly below 70 °C in duplex melting temperature; True otherwise

>>> label("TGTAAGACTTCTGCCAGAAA")
"False"
>>> label("AGGAGTGAATGAAATGG")
"False"
>>> label("GCCCGAGCATGACTGCG")
"True"
>>> label("ACTCGCTCTACCTTAAT")
"False"
>>> label("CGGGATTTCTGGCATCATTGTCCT")
"True"
>>> label("GAACTGCCACTACCAA")
"False"
>>> label("AGAGCGCCCTGCTGCC")
"True"
>>> label("AGCTGAGCCTGCCGCC")
"True"
>>> label("TGCCATGTTGAAAACC")
"False"
>>> label("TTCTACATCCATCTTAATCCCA")
"False"
>>> label("TTAACCTGCAATGGATC")
"False"
>>> label("CGTGTGGATAATTAGCT")
"False"
>>> label("GAGCAGAAGGGGTTGT")
"False"
>>> label("GTGGTACAAATGCGACC")
"False"
>>> label("TAGACGCGGCCTCTTTCC")
"True"
>>> label("GCTGTGAAACAATGTAG")
"False"
>>> label("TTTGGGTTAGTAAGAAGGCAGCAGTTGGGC")
"True"
>>> label("CTTTTGTGCGGGTAGC")
"False"
>>> label("GGTTGCGGTGGCCAAC")
"False"
>>> label("GCTGAACTAACCACCA")
"False"
>>> label("GCAGGAGCCGCGACCTG")
"True"
>>> label("CTGTAAGGCGATATGTT")
"False"
>>> label("GTCATTGTGCTTTTGC")
"False"
>>> label("GATGCCGCAGCGACCTG")
"True"
>>> label("GAGGCAGCCGCGACCTG")
"True"
>>> label("CGATTTTGTCAAGCCT")
"False"
>>> label("CTACCAGCGGCGCCGTT")
"True"
>>> label("TGTCGCACCCTACTA")
"False"

The measured values listed here are drawn from the supplement of paper PMC9116672.
